Molecular target: S100B (Homo sapiens, UniProt P04271)
Construct: made in house; host or cells: Escherichia coli BL21(DE3)
Sequence (P04271 1-92): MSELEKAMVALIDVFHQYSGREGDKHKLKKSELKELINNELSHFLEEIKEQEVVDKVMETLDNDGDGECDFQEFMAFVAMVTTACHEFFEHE
Assay: Pull-down assay with immobilized protein and LSM libraries
Type: binding
Settings: H14 library; 1:1 binding assumed; read-out: Surface mapping KD (apparent)
Lab note - cut at 100 µM for Kd: fulfilled if strictly below, not fulfilled if not.

Please review the following examples before continuing.
N=C(N)NCCC[C@@H](CC(=O)N[C@H]1CCCC[C@@H]1C(=O)N[C@H]1CCCC[C@@H]1C(=O)N[C@@H](CC(N)=O)CC(=O)N[C@H]1CCCC[C@@H]1C(N)=O)NC(=O)[C@H]1CCCC[C@@H]1N | not fulfilled
CC(C)C[C@@H](CC(=O)N[C@H]1CCCC[C@@H]1C(=O)N[C@H]1CCCC[C@@H]1C(=O)N[C@@H](CC(N)=O)CC(=O)N[C@H]1CCCC[C@@H]1C(N)=O)NC(=O)[C@H]1CCCC[C@@H]1N | not fulfilled
CC(C)[C@@H](CC(=O)N[C@H]1CCCC[C@@H]1C(N)=O)NC(=O)[C@H]1CCCC[C@@H]1NC(=O)[C@H]1CCCC[C@@H]1NC(=O)C[C@H](Cc1ccccc1)NC(=O)[C@H]1CCCC[C@@H]1N | fulfilled
CC[C@H](C)[C@@H](CC(=O)N[C@H]1CCCC[C@@H]1C(N)=O)NC(=O)[C@H]1CCCC[C@@H]1NC(=O)[C@H]1CCCC[C@@H]1NC(=O)C[C@H](CCCCN)NC(=O)[C@H]1CCCC[C@@H]1N | fulfilled

Consider the record given below.
Record CC(C)[C@@H](CC(=O)N[C@H]1CCCC[C@@H]1C(=O)N[C@H]1CCCC[C@@H]1C(=O)N[C@@H](CCCCN)CC(=O)N[C@H]1CCCC[C@@H]1C(N)=O)NC(=O)[C@H]1CCCC[C@@H]1N : is its Kd strictly below 100 µM?
not fulfilled
